measured_on: IgE antibodies of the allergic patient serum pool Bor 18/100 (20 donors)
experiment_notes: EAST inhibition, serum pool Bor 18/100
attribute_measured: allergenic potency (Prel) at 50% inhibition (relative to native Phl p 5b)

{"binder": "rPhl p 5b point mutant PM1 (N32D, D49L, K50A) (protein) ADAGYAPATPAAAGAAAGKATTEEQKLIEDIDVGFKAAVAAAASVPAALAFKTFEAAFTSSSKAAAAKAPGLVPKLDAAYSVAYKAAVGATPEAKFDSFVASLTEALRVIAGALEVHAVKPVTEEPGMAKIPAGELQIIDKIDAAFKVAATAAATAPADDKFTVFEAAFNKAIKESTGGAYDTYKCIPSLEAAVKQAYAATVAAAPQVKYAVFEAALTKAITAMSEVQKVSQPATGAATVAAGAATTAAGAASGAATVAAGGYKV", "observed_measurement": 0.349}
{"binder": "rPhl p 5b point mutant PM3 (A13C) (protein) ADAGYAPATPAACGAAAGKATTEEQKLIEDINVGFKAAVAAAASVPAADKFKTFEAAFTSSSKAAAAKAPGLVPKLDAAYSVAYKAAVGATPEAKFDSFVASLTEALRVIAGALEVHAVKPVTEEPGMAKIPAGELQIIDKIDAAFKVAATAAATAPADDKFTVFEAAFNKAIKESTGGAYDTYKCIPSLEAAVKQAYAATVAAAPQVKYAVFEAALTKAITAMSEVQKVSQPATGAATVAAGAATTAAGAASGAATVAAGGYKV", "observed_measurement": 0.864}
{"binder": "natural Phl p 5b, purified by affinity chromatography (protein) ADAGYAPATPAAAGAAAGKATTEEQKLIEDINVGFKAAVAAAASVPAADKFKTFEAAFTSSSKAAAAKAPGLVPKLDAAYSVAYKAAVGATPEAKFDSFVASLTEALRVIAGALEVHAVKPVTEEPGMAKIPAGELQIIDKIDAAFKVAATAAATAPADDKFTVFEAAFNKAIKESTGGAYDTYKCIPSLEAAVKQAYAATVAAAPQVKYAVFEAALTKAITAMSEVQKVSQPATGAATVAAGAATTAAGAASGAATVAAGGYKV", "observed_measurement": 1}
{"binder": "rPhl p 5b deletion mutant DM1 (deletion K50-P132, D49L) (protein) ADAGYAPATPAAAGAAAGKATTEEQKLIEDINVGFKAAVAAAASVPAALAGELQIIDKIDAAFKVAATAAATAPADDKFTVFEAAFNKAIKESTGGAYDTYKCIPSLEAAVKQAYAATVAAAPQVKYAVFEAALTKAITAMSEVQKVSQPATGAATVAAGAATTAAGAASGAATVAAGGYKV", "observed_measurement": 0.0015}

Hello, the source for this data is patent US6919086B1, in case you need it.
